system: SF-295; assay: NCI tumour cell line growth inhibition, 48 h
Calls of active or inactive are those of the source. Cut-off read from the data, not from the text of the source: active = GI50 up to about 1.1 µM and inactive = higher.
READOUT_LABEL: GI50

1) CCCCCOC(=O)c1cc2cc(CCl)ccc2oc1=O	13.7 µM (inactive)
2) C/C=C/C(=O)Oc1cccc2cccnc12	12.1 µM (inactive)
3) CC1(c2nc3ccccc3[nH]2)CCC(C(=O)O)C(C)(C)O1 (configuration not stated)	> 100 µM (inactive)
4) [N-]=[N+]=NC(CBr)c1cn([C@H]2C[C@H](O)[C@@H](CO)O2)c(=O)[nH]c1=O (some centres not stated)	> 100 µM (inactive)
5) Oc1c(C(Nc2ccccn2)c2ccccc2)ccc2cccnc12 (configuration not stated)	3.55 µM (inactive)
6) NC(=O)C(=O)Cc1nc2ccccc2s1	> 100 µM (inactive)
7) C[C@]12CCC(=O)C(OC(=O)c3ccc([N+](=O)[O-])cc3)=C1CCC2=O	> 100 µM (inactive)

====

tested on: LOX IMVI; test: NCI tumour cell line growth inhibition, 48 h
The source made the active and inactive calls. No stated cut-off is given here; in the data, active = GI50 up to about 1.1 µM and inactive = higher.
READOUT_LABEL: GI50

1. O=C1c2ccccc2C(=O)c2c1ccc1c2N=C(c2ccc(Br)cc2)CC(c2cccc3ccccc23)N1 (centres undefined)	> 100 µM (inactive)
2. CN(C)C(=N)c1ccccc1	> 100 µM (inactive)
3. COc1ccccc1-c1c(C#N)c(N)[nH]c(=S)c1C#N	65.2 µM (inactive)
4. C=CC1(C)OC2(CCN(C(=O)OCC)CC2)OC1C (centres undefined)	> 100 µM (inactive)

====

test system: SF-268; assay: NCI tumour cell line growth inhibition, 48 h
Active and inactive are the calls of the source. Rule as the data show it: active = GI50 up to about 1.1 µM and inactive = higher.
READOUT_LABEL: GI50

1) Cc1ccc(SC(=O)N2C(=S)N=C(NC3CCCCC3)C23CCCCC3)cc1	> 100 µM (inactive)
2) C[C@]12CCC(=O)C(OC(=O)c3ccc([N+](=O)[O-])cc3)=C1CCC2=O	> 100 µM (inactive)
3) O=C(O)CNc1c2ccccc2[n+]([O-])c2ccccc12	> 100 µM (inactive)
4) O=C1CC2(CCC3=C(O2)c2ccccc2NC(=O)C3)C(=O)c2ccccc2N1 (configuration not stated)	> 100 µM (inactive)
5) O=C(CC1Sc2ccccc2NC1=O)Nc1ccc([N+](=O)[O-])cc1[N+](=O)[O-] (configuration not stated)	16.6 µM (inactive)
6) Cc1c(C(=O)C/C(=N/NC(=O)CC#N)C(N)=O)[n+]([O-])c2ccccc2[n+]1[O-]	34.3 µM (inactive)
7) S=C1C(CCCOCc2ccccc2)C2CCCC23CC2(CCN13)OCCS2 (configuration not stated)	> 10 µM (inactive)
8) CN(C(=O)C12C3C4C1C1C2C3C41C(=O)N(C)C(C)(C)C)C(C)(C)C (configuration not stated)	> 50 µM (inactive)
9) c1ccc2cc3[s+]snc3cc2c1	> 100 µM (inactive)
10) O=P1(c2ccccc2)C2=CCC=CC2C(c2ccccc2)N1Cc1ccccc1 (configuration not stated)	14.7 µM (inactive)
11) CCc1ccccc1N1C(=O)C(=O)C(c2nc3ccccc3s2)C(=O)C1=O	> 100 µM (inactive)
12) NC(=O)c1ncn2c1NCC1OC2C(O)C1O (configuration not stated)	> 100 µM (inactive)
13) CC1(C)C[C@H]2C3=CC[C@@H]4[C@@]5(C)CC[C@H](O)C(C)(C)[C@@H]5CC[C@@]4(C)[C@]3(C)C[C@@H](O)[C@@]23C[C@@H]1OC3=O	> 100 µM (inactive)
14) COc1cccc(NC(=O)CC(=O)N2N=C(N(CCC#N)c3ccccc3C)CC2c2ccccc2)c1 (configuration not stated)	> 100 µM (inactive)
15) CCNC(=O)CCN(C(=O)O)S(=O)(=O)c1ccc(NC(=O)c2ccccc2)cc1	> 100 µM (inactive)
16) CC1(C)[N+]([O-])=[N+]([O-])C1(C)Br (configuration not stated)	> 100 µM (inactive)
17) COc1ccc(-c2cc(O)c3cc4c(cc3n2)OCO4)c(OC)c1OC	> 100 µM (inactive)
